Hey, just so you know, these numbers are from patent US20220403048A1.

# experimental_system: T1, biotinylated recombinant cynomolgus monkey trimeric ARG2 enzyme (Avi-cynoARG2-His10) (cynomolgus monkey, UniProt P78540 23-354 (human entry), biotinylated)
# T1 construct: also called cynomolgus ARG2
# T1 chain: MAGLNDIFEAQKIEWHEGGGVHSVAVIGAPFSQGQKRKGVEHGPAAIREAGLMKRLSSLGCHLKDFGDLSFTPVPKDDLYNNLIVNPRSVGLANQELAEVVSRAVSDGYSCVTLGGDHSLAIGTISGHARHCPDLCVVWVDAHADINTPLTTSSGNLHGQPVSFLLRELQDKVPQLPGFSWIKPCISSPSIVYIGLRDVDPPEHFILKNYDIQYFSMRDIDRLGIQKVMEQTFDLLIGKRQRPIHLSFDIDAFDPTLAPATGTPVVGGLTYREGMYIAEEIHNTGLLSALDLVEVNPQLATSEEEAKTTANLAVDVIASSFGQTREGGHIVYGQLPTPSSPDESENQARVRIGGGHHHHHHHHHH
# test_name: BLI (OctetRED), biotinylated cyno ARG2 on streptavidin, Fab as analyte
For each entry below, report its Kd value.
Give bare numbers, in nM.

Example binders with recorded Kd:
binder	Kd, nM
C0021022 Fab (Fab, V domains shown, Human Fab) VH: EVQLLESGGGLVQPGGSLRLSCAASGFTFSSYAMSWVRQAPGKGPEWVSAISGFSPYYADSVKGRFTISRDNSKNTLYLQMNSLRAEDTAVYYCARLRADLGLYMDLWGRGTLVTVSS VL: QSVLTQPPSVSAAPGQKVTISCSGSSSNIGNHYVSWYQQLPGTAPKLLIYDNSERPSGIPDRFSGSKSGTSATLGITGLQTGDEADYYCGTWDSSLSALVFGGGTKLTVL	1.66
C0021065 Fab (Fab, V domains shown, Human Fab) VH: EVQLLESGGGLVQPGGSLRLSCAASGFTFSSYAMSWVRQAPGKGPEWVSAISGFSPYYADSVKGRFTISRDNSRNTLYLQMNSLRAEDTAVYYCARLRADLGLYMDLWGRGTLVTVSS VL: QSVLTQPPSVSAAPGQKVTISCSGSSSNIGNHYVSWYQQLPGTAPKLLIYDTDHMASGIPDRFSGSKSGTSATLGITGLQTGDEADYYCGTWDSSLSALVFGGGTKLTVL	1.27

Here is the next item to consider.
Look up Kd for this binder: C0021061 Fab (Fab, V domains shown, Human Fab) VH: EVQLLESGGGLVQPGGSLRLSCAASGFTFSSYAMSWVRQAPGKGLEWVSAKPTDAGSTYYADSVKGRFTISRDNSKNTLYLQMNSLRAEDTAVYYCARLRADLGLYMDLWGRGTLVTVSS VL: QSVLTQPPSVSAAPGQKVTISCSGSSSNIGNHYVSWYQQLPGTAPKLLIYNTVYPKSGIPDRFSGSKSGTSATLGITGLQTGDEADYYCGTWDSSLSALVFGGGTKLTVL 0.953
